Test system: OVCAR-8
Experiment: NCI tumour cell line growth inhibition, 48 h
Calls of active or inactive are those of the source. Rule as the data show it: active = GI50 up to about 1.1 µM and inactive = higher.
measure.name: GI50

{"columns": ["molecule", "GI50"],
 "data": [
  ["COc1cc(O)c2c(c1)OCC(Cc1ccc(O)cc1)C2=O (stereo not given)", "> 100 µM (inactive)"],
  ["Nc1ccn(C2OC(C(OC3OC(CO)C(O)C(N)C3O)C(O)C(O)C(O)C(O)CO)C(N)C(O)C2O)c(=O)n1 (stereo not given)", "81.5 µM (inactive)"],
  ["Cc1[nH]c(=O)nc(N/N=C/c2ccc(Cl)cc2)c1C(=O)Nc1ccc(Cl)cc1", "10.2 µM (inactive)"],
  ["CN(Cc1cnc2nc(N)nc(N)c2n1)c1ccc(C(=O)NC(CCC(=O)NCC(P(=O)(O)O)P(=O)(O)O)C(=O)O)cc1 (stereo not given)", "7.6 µM (inactive)"],
  ["CN1CCc2c1nc(-c1cccnc1)c1c2N(C)CC1", "> 100 µM (inactive)"],
  ["Cn1c(-c2ccccc2)cc(-c2ccc3c(c2)OCO3)c1-c1ccsc1", "> 100 µM (inactive)"],
  ["Cc1nc2c(C)ccc([N+](=O)[O-])c2c(NCCCN(C)C)c1C", "> 46.6 µM (inactive)"],
  ["CN(C)C(=S)N/N=C\\C(=N/NC(=S)N(C)C)c1ccccc1", "4.82 µM (inactive)"],
  ["CC(C)(C)OC(=O)N(CCCCNC(=O)OCc1ccccc1)CCCNC(=O)OCc1ccccc1", "32.4 µM (inactive)"],
  ["CN(C)c1ccc(/C=c2\\sc3nc4ccccc4n3c2=O)cc1", "> 100 µM (inactive)"]
]}

[in] Please indicate GI50 recorded for O=C1Oc2ccccc2C(=O)/C1=C/NC(=S)NCc1ccccc1
[out] 41.1 µM (inactive)

[in] Report measured GI50; entry is O=C1CC(C2(O)C(=O)Nc3ccc([N+](=O)[O-])cc32)c2ccccc21 (stereo not given)
[out] 66.4 µM (inactive)

[in] Using known records, supply GI50 for COC(=O)c1ccccc1C1CN=NC12Cc1cc(C)ccc1C2=O (stereo not given)
[out] > 100 µM (inactive)

[in] Using the record for FC(F)(F)C1=NC(=NNc2nnc(-c3ccccc3)c(-c3ccccc3)n2)N=C(C(F)(F)F)C1 , state its measured GI50.
[out] 25.8 µM (inactive)

[in] Consider the molecule Cc1cc(Cl)cc2c1NC(=O)C2=O.O=C(c1ccccc1)C(F)(F)F and give its recorded GI50.
[out] 55.5 µM (inactive)

[in] Tell me measured GI50 for COP(=O)(OC)C(O)/C=C/c1ccco1 (stereo not given) please.
[out] > 100 µM (inactive)

[in] Indicate its recorded GI50; the molecule in question is CC1(C)OCC([C@H]2O[C@@H](CC(=S)NCCCCCCCCCCCCNC(=S)C[C@H]3O[C@@H](C4COC(C)(C)O4)[C@H]4OC(C)(C)O[C@H]43)[C@H]3OC(C)(C)O[C@H]32)O1 (stereo not given in full)
[out] 53.5 µM (inactive)

[in] Name the recorded GI50 of the molecule listed here: OCC1OC(c2scc3c(=S)[nH]cnc23)C(O)C1O (stereo not given)
[out] 1.24 µM (inactive)

[in] Give the value of GI50 reported for the following: OCC1CCC(n2cnc3c(O)ncnc32)O1 (stereo not given)
[out] > 100 µM (inactive)

[in] Give GI50 for the following molecule: Oc1ccc2ccccc2c1/C=C/c1ccc2c(Br)cc(Br)c(O)c2n1
[out] 3.57 µM (inactive)

[in] Write down GI50 measured for item O=c1c2ncn(CCCl)c2n(-c2ccccc2)c(=S)n1-c1ccccc1
[out] > 100 µM (inactive)

[in] Please indicate GI50 recorded for O=C(c1ccccc1)c1ccc2c(c1)NC(=O)c1ccccc1SSc1ccccc1C(=O)N2
[out] > 100 µM (inactive)

[in] Give me measured GI50, please, for this molecule: COCCCN(Cc1cc(OC)c(OC)c(OC)c1)C(=S)Nc1cccc(Cl)c1
[out] 25 µM (inactive)

[in] Specify reported GI50 for the molecule shown: CCOC(=O)/C=C/[C@H](O)[C@@H](O)/C=C/C(=O)OCC
[out] 19.6 µM (inactive)

[in] Give GI50 for CCSC1(SCC)CC(Cc2ccc(OC)cc2)N(/C=N/C(C)(C)C)C1 (stereo not given)
[out] 28.2 µM (inactive)

[in] Return GI50 for the following molecule: COc1c(C(=O)NCCN(CCNC(=O)c2cccc(-c3cccc(C(=O)N(C)C)c3OC)c2OC)CCNC(=O)c2cccc(-c3cccc(C(=O)N(C)C)c3OC)c2OC)cccc1-c1cccc(C(=O)N(C)C)c1OC
[out] > 100 µM (inactive)

* * *

Tested on: EKVX
Experiment: NCI tumour cell line growth inhibition, 48 h
Calls of active or inactive are those of the source. No stated cut-off is given here; in the data, active = GI50 up to about 1.1 µM and inactive = higher.
Reply using exactly one outcome from YES for active, NO for inactive

Answered cases to consult:
{"columns": ["compound", "class"],
 "data": [
  ["O=c1[nH]/c(=C/c2ccc(OCc3ccccc3)cn2)c(=O)[nH]/c1=C/c1ccc([N+](=O)[O-])cc1", "NO"],
  ["COc1cc(S(=O)(=O)Nc2ccc(-c3csc(N4C(=O)C(Cl)C4c4cccs4)n3)cc2)ccc1Cl (configuration not stated)", "NO"],
  ["CCSc1nc2n(c(=S)n1)CCN2C", "NO"],
  ["Cc1oc2c(C)c(O)c3c(c2c1C1(C)OCCO1)C(=O)C=C(Cl)C3=O", "NO"],
  ["[BH3-][P+]1(CC[P@@+]([BH3-])(c2ccccc2)c2ccccc2OC)[C@@H](C)[C@@H](O)[C@H](O)[C@@H]1C (some centres not stated)", "NO"],
  ["N/C(=N\\O)N/N=C/c1cc(I)cc(I)c1O", "NO"],
  ["COC(=O)c1c(C#C[Si](C)(C)C)c(C#C[Si](C)(C)C)c(C#C[Si](C)(C)C)c(C#C[Si](C)(C)C)c1C(=O)OC", "NO"],
  ["Cc1cccc2cc3c(ccc4ccccc43)c[n+]12", "NO"]
]}

[in] Which outcome was assigned to CC1[C@@]2(CCC(C)(C)O2)O[C@@H]2C=C3C4CCC5Cc6nc7c(nc6C[C@@]5(C)C4C[C@H](O)[C@@]3(C)[C@]12O)CC1CCC2C3=C[C@H]4O[C@@]5(O[C@@](C)(CO)C[C@@H]5O)C(C)[C@@]4(O)[C@]3(C)[C@@H](O)CC2[C@]1(C)C7 (some centres not stated) in this test?
[out] YES

[in] Could you please tell me the result logged for CC1=C(C(=O)CC(=O)C(=O)Nc2cccc(C)c2C)Sc2ccccc2N1 in this assay?
[out] NO

[in] For COc1cc(/C=C/C(=O)O)ccc1C(=O)O/C=C/c1ccccc1 , which call appears in the assay record?
[out] NO

[in] # lookup: test call for CC(C)C1CCC(=O)CC1CCCCC1CC(=O)CC1O[Si](C)(C)C(C)(C)C (configuration not stated)
[out] NO

[in] Please indicate how the test categorized CCC(=O)Nc1ncnc2ncn(C(=O)CC)c12 .
[out] NO

[in] Recorded test call requested for COc1ccc(OC)c(NC(=O)C2=C(C)NC(C)=C(C(=O)Nc3cc(OC)ccc3OC)C2c2ccccc2)c1
[out] NO

[in] Which outcome was entered for the compound COc1cc(C=C2N=C(c3ccccc3)N(n3c(-c4ccccc4)nc4ccccc4c3=O)C2=O)cc(OC)c1OC in this test?
[out] NO

[in] Look up the recorded call for CCN(CC)CCNc1ccc([N+](=O)[O-])c2nc3ccccc3c(N)c12 in this test.
[out] YES

* * *

System: EKVX
Assay: NCI tumour cell line growth inhibition, 48 h
Active and inactive are the calls of the source. Rule as the data show it: active = GI50 up to about 1.1 µM and inactive = higher.
// allowed return values: Y for active, N for inactive

{"columns": ["compound", "class"],
 "data": [
  ["Cc1cc(OCc2nc(N)nc(N)c2-c2ccc(Cl)c(Cl)c2)ccc1[N+](=O)[O-]", "Y"],
  ["C=CCN(N=O)C(=O)ON1C(=O)CCC1=O", "N"],
  ["CCN1/C(=C/C#C/C(C)=C\\c2sc3ccccc3[n+]2CC)Sc2ccccc21", "N"],
  ["COc1ccccc1-c1nc[nH]c1-c1ccccc1OC", "N"],
  ["O=C1c2ccccc2C2(O)Nc3c(ccc4ccccc34)C12O (stereo unspecified)", "N"]
]}

[in] State the result this test recorded for N#Cc1c(NC(=S)Nc2ccc(Cl)cc2)sc2c1CCCC2 .
[out] N

* * *

System: MDA-MB-231
Test: NCI tumour cell line growth inhibition, 48 h
Active and inactive are the calls of the source. Rule as the data show it: active = GI50 up to about 1.1 µM and inactive = higher.
Log the outcome using a class from active, inactive

{"columns": ["molecule", "class"],
 "data": [
  ["N#Cc1c(NC(=S)Nc2ccc(Cl)cc2)sc2c1CCCC2", "inactive"],
  ["O=C1c2ccccc2C(=O)N1CC(CN1C(=O)c2ccccc2C1=O)(C(=O)OCc1ccccc1)C(=O)OCc1ccccc1", "inactive"],
  ["Cc1ccsc1/C(S)=N\\c1ccc(Cl)c(/C=N/OC(C)(C)C)c1", "inactive"],
  ["Cc1cc(S(=O)(=O)Nc2nc(N)n(-c3ccccc3)n2)c(S)cc1Cl", "inactive"]
]}

[in] Which outcome was assigned to COc1c(C(=O)NCCN(CCNC(=O)c2cccc(-c3cccc(C(=O)N(C)C)c3OC)c2OC)CCNC(=O)c2cccc(-c3cccc(C(=O)N(C)C)c3OC)c2OC)cccc1-c1cccc(C(=O)N(C)C)c1OC in this test?
[out] inactive

[in] I'd appreciate the recorded outcome for CC[C@](O)(CC(=O)O[C@H]1C(=O)O[C@@H]2C[C@H]3C(C)=CC(=O)[C@@H](O)[C@]3(C)[C@H]3[C@@]4(O)OC[C@]32[C@@H]1[C@@H](C)[C@H]4O)C(C)C from this test.
[out] active

[in] I would be grateful if you could indicate the recorded call for C=C1C(OC2O[C@@H]3O[C@@]4(C)CC[C@H]5[C@H](C)CC[C@@H](C2=C)[C@@]35O4)O[C@@H]2O[C@@]3(C)CC[C@H]4[C@H](C)CC[C@@H]1[C@@]24O3 (some centres not stated) .
[out] inactive

[in] Lab log entry: C#CCOCC12C=CC(O1)C1COC(=O)C12 (configuration not stated) — outcome as called in the assay?
[out] inactive

[in] # outcome recorded in this test, key = CSc1ccc(NC(=O)C2CCCCC2C(=O)O)cc1 (configuration not stated)
[out] inactive

[in] // outcome(item) with item = COc1cc2c[n+]3c4c(c2c(OC)c1OC)CCCC4CC3 (configuration not stated)
[out] inactive

[in] Assay outcome for Cc1nc(C)c(N2CCN(CN)CC2)c(O)n1 : what was it?
[out] inactive

[in] Hi, sorry to bother you, what did the test record for CN1C(=O)N(C)C(O)C(Cl)(Br)C1=O (configuration not stated) ?
[out] inactive

[in] Tell me the recorded outcome of this test for Oc1ccc2ccccc2c1/C=C/c1ccc2c(Br)cc(Br)c(O)c2n1 .
[out] inactive
